Recorded IC50 for the following compounds
# Study System: C-X-C chemokine receptor type 3 (Homo sapiens)
# Sequence (P49682 whole entry): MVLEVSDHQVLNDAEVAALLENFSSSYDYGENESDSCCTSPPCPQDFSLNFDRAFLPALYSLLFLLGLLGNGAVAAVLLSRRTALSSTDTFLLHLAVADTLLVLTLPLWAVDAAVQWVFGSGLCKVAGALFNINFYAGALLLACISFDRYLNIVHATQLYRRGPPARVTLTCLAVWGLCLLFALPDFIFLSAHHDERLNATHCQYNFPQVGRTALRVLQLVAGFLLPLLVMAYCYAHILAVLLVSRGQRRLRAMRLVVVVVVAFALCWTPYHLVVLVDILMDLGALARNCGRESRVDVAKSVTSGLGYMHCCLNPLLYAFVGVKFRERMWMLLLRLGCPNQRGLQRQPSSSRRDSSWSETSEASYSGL
Parameter Measured: IC50

[[record]]
input_smiles = "CC[C@H]1CN(c2nc(N)c(-c3nnc(C)o3)nc2Cl)CCN1C1CCN(C(=O)c2ccc(Cl)nc2N)CC1"
parameter_measured = "IC50"
value_reported = "2 nM"

[[record]]
input_smiles = "CC[C@H]1CN(c2ncc(C3=NCCN3)cc2Cl)CCN1C1CCN(Cc2ccc(Cl)cc2F)CC1"
parameter_measured = "IC50"
value_reported = "1.3 nM"

[[record]]
input_smiles = "CC[C@H]1CN(c2nc(N)c(-c3nnc(NC)o3)nc2Cl)CCN1C1CCN(C(=O)c2ccc(Cl)nc2N)CC1"
parameter_measured = "IC50"
value_reported = "1.6 nM"

[[record]]
input_smiles = "CC[C@H]1CN(c2ncc(-c3noc(=O)[nH]3)cc2Cl)CCN1C1CCN(Cc2ccc(Cl)cc2F)CC1"
parameter_measured = "IC50"
value_reported = "760 nM"


* * *

Items are presented alongside their recorded inhibition (INH).
# Study System: Voltage-gated inwardly rectifying potassium channel KCNH2 (Homo sapiens)
# Sequence (Q12809 whole entry): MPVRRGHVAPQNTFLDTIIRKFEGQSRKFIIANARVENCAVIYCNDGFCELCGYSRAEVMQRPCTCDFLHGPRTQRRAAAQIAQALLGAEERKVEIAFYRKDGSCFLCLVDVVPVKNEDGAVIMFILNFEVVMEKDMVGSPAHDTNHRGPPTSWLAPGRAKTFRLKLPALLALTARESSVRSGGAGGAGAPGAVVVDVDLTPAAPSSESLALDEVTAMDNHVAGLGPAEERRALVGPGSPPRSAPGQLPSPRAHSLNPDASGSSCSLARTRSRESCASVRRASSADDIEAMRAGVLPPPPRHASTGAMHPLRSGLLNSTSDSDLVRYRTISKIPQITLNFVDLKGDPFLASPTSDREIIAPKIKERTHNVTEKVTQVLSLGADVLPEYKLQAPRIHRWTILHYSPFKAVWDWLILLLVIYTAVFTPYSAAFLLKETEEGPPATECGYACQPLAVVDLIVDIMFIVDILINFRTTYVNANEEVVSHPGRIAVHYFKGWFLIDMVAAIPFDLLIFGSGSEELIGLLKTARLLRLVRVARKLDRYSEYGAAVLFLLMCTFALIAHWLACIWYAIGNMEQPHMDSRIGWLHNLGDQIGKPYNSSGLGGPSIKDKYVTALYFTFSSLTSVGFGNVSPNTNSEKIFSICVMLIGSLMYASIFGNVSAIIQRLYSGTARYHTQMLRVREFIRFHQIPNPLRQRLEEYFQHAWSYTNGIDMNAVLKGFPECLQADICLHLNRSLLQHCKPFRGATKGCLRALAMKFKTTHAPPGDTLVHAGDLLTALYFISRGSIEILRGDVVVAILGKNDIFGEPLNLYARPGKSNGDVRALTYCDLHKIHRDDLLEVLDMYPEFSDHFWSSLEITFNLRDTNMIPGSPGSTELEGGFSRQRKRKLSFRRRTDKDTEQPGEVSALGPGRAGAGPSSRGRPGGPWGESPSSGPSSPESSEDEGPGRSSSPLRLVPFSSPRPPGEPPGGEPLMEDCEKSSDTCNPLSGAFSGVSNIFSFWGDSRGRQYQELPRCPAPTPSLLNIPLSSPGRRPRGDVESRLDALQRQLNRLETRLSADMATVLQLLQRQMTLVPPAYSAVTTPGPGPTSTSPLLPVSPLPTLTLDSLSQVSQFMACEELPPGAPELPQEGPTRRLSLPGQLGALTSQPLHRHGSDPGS
# Measurement Description: Inhibition of human ERG channel by Rb efflux assay
Parameter Measured: inhibition (INH) (%)

[[record]]
input_smiles = "CCNc1nnc(-c2cnc(N3CCN(C4CCN(C(=O)c5ccc(Cl)cc5)CC4)[C@@H](CC)C3)c(C)n2)o1"
parameter_measured = "inhibition (INH)"
comparison_sign = "="
value_reported = 40

[[record]]
input_smiles = "CCNc1nnc(-c2cnc(N3C[C@H](CC)N(C4CCN(C(=O)c5ccc(Cl)nc5N)CC4)C[C@H]3C)c(C)n2)o1"
parameter_measured = "inhibition (INH)"
comparison_sign = "="
value_reported = 4

[[record]]
input_smiles = "CC[C@H]1CN(c2nc(N)c(C(N)=O)nc2Cl)CCN1C1CCN(Cc2ccc(Cl)cc2)CC1"
parameter_measured = "inhibition (INH)"
comparison_sign = ">"
value_reported = 90

[[record]]
input_smiles = "CC[C@H]1CN(c2nc(N)c(-c3nnc(NS(C)(=O)=O)o3)nc2Cl)CCN1C1CCN(C(=O)c2ccc(Cl)nc2N)CC1"
parameter_measured = "inhibition (INH)"
comparison_sign = "="
value_reported = 5

[[record]]
input_smiles = "CC[C@H]1CN(c2nc(N)c(-c3nnc(NC)o3)nc2Cl)CCN1C1CCN(C(=O)c2ccc(Cl)nc2N)CC1"
parameter_measured = "inhibition (INH)"
comparison_sign = "="
value_reported = 39

[[record]]
input_smiles = "CCNc1nnc(-c2cnc(N3CCN(C4CCN(C(=O)c5ccc(Cl)nc5N)CC4)[C@@H](CC)C3)c(C3CC3)n2)o1"
parameter_measured = "inhibition (INH)"
comparison_sign = "="
value_reported = 14

[[record]]
input_smiles = "CCNc1nnc(-c2cnc(N3CCN(C4CCN(C(=O)c5ccc(Cl)nc5N)CC4)[C@@H](CC)C3)c(C(F)(F)F)n2)o1"
parameter_measured = "inhibition (INH)"
comparison_sign = "="
value_reported = 43

[[record]]
input_smiles = "CC[C@H]1CN(c2nc(N)c(-c3nnc(C4CC4)o3)nc2Cl)CCN1C1CCN(C(=O)c2ccc(Cl)nc2N)CC1"
parameter_measured = "inhibition (INH)"
comparison_sign = "="
value_reported = 72

[[record]]
input_smiles = "CC[C@H]1CN(c2nc(N)c(-c3nnc(C)o3)nc2Cl)CCN1C1CCN(C(=O)c2ccc(Cl)nc2N)CC1"
parameter_measured = "inhibition (INH)"
comparison_sign = "="
value_reported = 26

[[record]]
input_smiles = "CC[C@H]1CN(c2nc(N)c(-c3nnc(N)o3)nc2Cl)CCN1C1CCN(C(=O)c2ccc(Cl)nc2N)CC1"
parameter_measured = "inhibition (INH)"
comparison_sign = "="
value_reported = 7

[[record]]
input_smiles = "CC[C@H]1CN(c2ncc(-c3ncc[nH]3)nc2C)[C@H](C)CN1C1CCN(C(=O)c2ccc(Cl)cc2)CC1"
parameter_measured = "inhibition (INH)"
comparison_sign = "="
value_reported = 36


* * *

# Tested on: Rattus norvegicus
# Measurement Description: AUC in rat at 10 mg/kg, po after 6 hrs
# Type: ADME, organism-based, Plasma
# Set-up: time < 6 hr, dose 10 mg/kg, route oral
# Condition Parameters: in vivo
Recorded AUC values for a group of compounds are listed next.
Parameter Measured: AUC (uM.hr/ml)

[[record]]
input_smiles = "CC[C@H]1CN(c2ncc(-c3nnc(N)o3)nc2C)[C@H](C)CN1C1CCN(C(=O)c2ccc(Cl)cc2)CC1"
parameter_measured = "AUC"
unit_info = "uM.hr/ml"
value_reported = 1

[[record]]
input_smiles = "CCNc1nnc(-c2cnc(N3CCN(C4CCN(C(=O)c5ccc(Cl)nc5N)CC4)[C@@H](CC)C3)c(C)n2)o1"
parameter_measured = "AUC"
unit_info = "uM.hr/ml"
value_reported = 0.1

[[record]]
input_smiles = "CCNc1nnc(-c2cnc(N3CCN(C4CCN(C(=O)c5ccc(Cl)nc5N)CC4)[C@@H](CC)C3)c(C(F)(F)F)n2)o1"
parameter_measured = "AUC"
unit_info = "uM.hr/ml"
value_reported = 4.2

[[record]]
input_smiles = "CCNc1nnc(-c2cnc(N3C[C@H](CC)N(C4CCN(C(=O)c5ccc(Cl)nc5N)CC4)C[C@H]3C)c(C(F)(F)F)n2)o1"
parameter_measured = "AUC"
unit_info = "uM.hr/ml"
value_reported = 5.1


* * *

# Measurement Description: AUC in rat at 10 mg/kg, po
# Format: ADME, organism-based, Plasma
# Set-up: dose 10 mg/kg, route oral
# Condition Parameters: plasma
Parameter Measured: AUC (µM·h)

[[record]]
input_smiles = "CC[C@H]1CN(c2ncc(-c3nnco3)cc2Cl)CCN1C1CCN(Cc2ccc(Cl)cc2F)CC1"
value_reported = 1.8


* * *

# System: Rattus norvegicus
# Measurement Description: AUC in rat at 10 mg/kg, po
# Format: ADME, organism-based, Plasma
# Set-up: dose 10 mg/kg, route oral
# Condition Parameters: in vivo
Parameter Measured: AUC

[[record]]
input_smiles = "CCNc1nnc(-c2cnc(N3C[C@H](CC)N(C4CCN(C(=O)c5ccc(Cl)nc5N)CC4)C[C@H]3C)c(C)n2)o1"
parameter_measured = "AUC"
value_reported = "15.3 uM.hr/ml"

[[record]]
input_smiles = "CCNc1nnc(-c2cnc(N3CCN(C4CCN(C(=O)c5ccc(Cl)cc5)CC4)[C@@H](CC)C3)c(C)n2)o1"
parameter_measured = "AUC"
value_reported = "16.4 uM.hr/ml"

[[record]]
input_smiles = "CC[C@H]1CN(c2nc(N)c(-c3nnc(C)o3)nc2Cl)CCN1C1CCN(C(=O)c2ccc(Cl)cc2)CC1"
parameter_measured = "AUC"
value_reported = "3.9 uM.hr/ml"

[[record]]
input_smiles = "CCNc1nnc(-c2cnc(N3CCN(C4CCN(C(=O)c5ccc(Cl)nc5N)CC4)[C@@H](CC)C3)c(C)n2)o1"
parameter_measured = "AUC"
value_reported = "2.6 uM.hr/ml"

[[record]]
input_smiles = "CC[C@H]1CN(c2nc(N)c(-c3nnc(C)o3)nc2Cl)CCN1C1CCN(Cc2ccc(Cl)cc2)CC1"
parameter_measured = "AUC"
value_reported = "1 uM.hr/ml"

[[record]]
input_smiles = "CCNc1nnc(-c2cnc(N3C[C@H](CC)N(C4CCN(C(=O)c5ccc(Cl)cc5)CC4)C[C@H]3C)c(C(F)(F)F)n2)o1"
parameter_measured = "AUC"
value_reported = "9.9 uM.hr/ml"

[[record]]
input_smiles = "CC[C@H]1CN(c2ncc(-c3ncc[nH]3)nc2C)[C@H](C)CN1C1CCN(C(=O)c2ccc(Cl)cc2)CC1"
parameter_measured = "AUC"
value_reported = "7.3 uM.hr/ml"

[[record]]
input_smiles = "CC[C@H]1CN(c2nc(N)c(C(N)=O)nc2Cl)CCN1C1CCN(Cc2ccc(Cl)cc2)CC1"
parameter_measured = "AUC"
value_reported = "5.1 uM.hr/ml"

[[record]]
input_smiles = "CC[C@H]1CN(c2nc(N)c(-c3nnc(N)o3)nc2Cl)CCN1C1CCN(C(=O)c2ccc(Cl)nc2N)CC1"
parameter_measured = "AUC"
value_reported = "0.3 uM.hr/ml"

[[record]]
input_smiles = "CC[C@H]1CN(c2ncc(-c3ncc[nH]3)nc2C)[C@H](C)CN1C1CCN(C(=O)c2ccc(Cl)nc2N)CC1"
parameter_measured = "AUC"
value_reported = "6.7 uM.hr/ml"

[[record]]
input_smiles = "CCNc1nnc(-c2cnc(N3CCN(C4CCN(C(=O)c5ccc(Cl)nc5N)CC4)[C@@H](CC)C3)c(C(F)(F)F)n2)o1"
parameter_measured = "AUC"
value_reported = "25.3 uM.hr/ml"

[[record]]
input_smiles = "CCNc1nnc(-c2cnc(N3C[C@H](CC)N(C4CCN(C(=O)c5ccc(Cl)cc5)CC4)C[C@H]3C)c(C)n2)o1"
parameter_measured = "AUC"
value_reported = "16.6 uM.hr/ml"

[[record]]
input_smiles = "CC[C@H]1CN(c2ncc(-c3nnc(NC)o3)nc2C)[C@H](C)CN1C1CCN(C(=O)c2ccc(Cl)cc2)CC1"
parameter_measured = "AUC"
value_reported = "18 uM.hr/ml"

[[record]]
input_smiles = "CC[C@H]1CN(c2ncc(-c3nnc(N)o3)nc2C)[C@H](C)CN1C1CCN(C(=O)c2ccc(Cl)cc2)CC1"
parameter_measured = "AUC"
value_reported = "12.7 uM.hr/ml"

